Target: T1, dPPR-U10 (designed (synthetic; NTD/CTD from Zea …, UniProt PDB:5I9F_1 1-460)
T1 chain: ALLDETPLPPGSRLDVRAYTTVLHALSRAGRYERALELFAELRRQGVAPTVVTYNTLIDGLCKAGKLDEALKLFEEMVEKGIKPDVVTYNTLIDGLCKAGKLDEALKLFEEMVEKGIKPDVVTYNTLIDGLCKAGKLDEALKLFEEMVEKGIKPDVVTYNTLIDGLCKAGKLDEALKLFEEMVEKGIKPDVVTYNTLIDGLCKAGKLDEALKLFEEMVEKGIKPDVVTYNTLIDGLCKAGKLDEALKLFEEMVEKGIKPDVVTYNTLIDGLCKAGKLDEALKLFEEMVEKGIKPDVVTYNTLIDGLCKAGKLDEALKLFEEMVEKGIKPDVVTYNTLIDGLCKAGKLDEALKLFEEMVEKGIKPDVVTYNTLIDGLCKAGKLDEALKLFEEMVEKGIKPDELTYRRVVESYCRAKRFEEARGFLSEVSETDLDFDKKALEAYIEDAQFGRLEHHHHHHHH
Assay: EMSA; 5 mM Mg2+; apparent Kd; EMSA: 25 mM Tris-HCl pH 8.0, 5 mM MgCl2, 5 mM DTT, 0.1 mg/ml BSA, 50 ng/ml heparin, 10% glycerol, ~2 nM 32P-RNA, 20 min on ice
recordedMetric: pKd
Bear in mind: pKd is minus log10 of a mol/L concentration; give just that figure.

Just so you know, measured pKd for UUUUUUUUUU (ssRNA) [U10 target] came out at 7.13

Values were extracted from paper PMC4837458.
